Recorded below: ID50, system Gag-Pol polyprotein (Moloney murine leukemia virus isolate Shinnick) (UniProt P03355).
Numbers only, in µg/mL.

Example molecules with recorded ID50:
molecule: CC(Cc1cc2cc(C(=N)N)ccc2o1)c1cc2cc(C(=N)N)ccc2o1 (stereo not given)
measured.target: Gag-Pol polyprotein (Moloney murine leukemia virus isolate Shinnick) (UniProt P03355)
measured.value: 15

molecule: N=C(N)c1ccc(-c2nnc(-c3ccc(C(=N)N)cc3)o2)cc1
measured.target: Gag-Pol polyprotein (Moloney murine leukemia virus isolate Shinnick) (UniProt P03355)
measured.value: 28

molecule: N=C(N)c1ccc2oc(CCc3cc4cc(C(=N)N)ccc4o3)cc2c1
measured.target: Gag-Pol polyprotein (Moloney murine leukemia virus isolate Shinnick) (UniProt P03355)
measured.value: 12

molecule: N=C(N)c1ccc(C2Cc3cc(C(=N)N)ccc3S2(=O)=O)cc1 (stereo not given)
measured.target: Gag-Pol polyprotein (Moloney murine leukemia virus isolate Shinnick) (UniProt P03355)
measured.value: 90

molecule: N=C(N)c1cccc(Oc2ccc(-c3cc4ccc(C(=N)N)cc4[nH]3)cc2)c1
measured.target: Gag-Pol polyprotein (Moloney murine leukemia virus isolate Shinnick) (UniProt P03355)
measured.value: 6

molecule: N=C(N)N/N=C/c1ccc2cc(-c3ccc(/C=N/N=C(N)N)cc3)sc2c1
measured.target: Gag-Pol polyprotein (Moloney murine leukemia virus isolate Shinnick) (UniProt P03355)
measured.value: 2

molecule: N=C(N)c1ccc(NC(=O)c2cc3cc(C(=N)N)ccc3o2)cc1
measured.target: Gag-Pol polyprotein (Moloney murine leukemia virus isolate Shinnick) (UniProt P03355)
measured.value: 7.5

molecule: N=C(N)c1ccc(Oc2ccc(/C=C/c3cc4ccc(C(=N)N)cc4[nH]3)cc2)cc1
measured.target: Gag-Pol polyprotein (Moloney murine leukemia virus isolate Shinnick) (UniProt P03355)
measured.value: 1.4

// for each molecule below, give its ID50
1. N=C(N)c1ccc2oc(/C=C/c3cc4ccc(C(=N)N)cc4[nH]3)cc2c1
2. N=C(N)c1ccc(OCCCCCOc2ccc(C(=N)N)cc2)cc1

Output line:
[1.1, 100]

* * *

Record form. Attribute: ID50. Fill in for each entry.
- measured.target: Gag-Pol polyprotein (Moloney murine leukemia virus isolate Shinnick)
Answer format: value, then unit.

molecule.smiles: N=C(N)c1ccc2sc(/C=C/c3cc4cc(C(=N)N)ccc4s3)cc2c1
ID50: 11 µg/mL

// for each compound below, give its ID50
1. N=C(N)c1ccc2oc(/C=C/C=C/C=C/c3cc4cc(C(=N)N)ccc4o3)cc2c1
2. c1cc(-c2cc3ccc(C4=NCCN4)cc3s2)ccc1C1=NCCN1
3. O=C(Nc1ccc(C2=NCCN2)cc1)c1ccc(C(=O)Nc2ccc(C3=NCCN3)cc2)cc1
4. C(=C\c1cc2cc(C3=NCCN3)ccc2o1)/c1ccc(C2=NCCN2)cc1
5. N=C(N)c1ccc(/C=C/C=C/C=C/c2cc3cc(C(=N)N)ccc3o2)cc1
6. c1cc(-c2cc3ccc(C4=NCCN4)cc3[nH]2)ccc1C1=NCCN1
7. N=C(N)c1ccc(-c2cc3cc(C(=N)N)ccc3s2)cc1

Output line:
1. 1.6 µg/mL
2. 1.2 µg/mL
3. 200 µg/mL
4. 6 µg/mL
5. 1.6 µg/mL
6. 6 µg/mL
7. 5 µg/mL

// for each compound below, give its ID50
1. N=C(N)c1ccc(-c2ccc(-c3ccc(C(=N)N)cc3)o2)cc1
2. C/C(=C\c1cc2cc(C(=N)N)ccc2o1)c1ccc(C(=N)N)cc1

Output line:
["6 µg/mL", "4 µg/mL"]
